- assay text: Compound cytotoxicity by MTS dye reduction
- reported conditions: human, H1 HeLa cells
assay metric: CC50

Returns the measured CC50 for the input molecule. Input: CCC(CC)COC(=O)[C@H](C)N[P@](=O)(OC[C@H]1O[C@@](C#N)(c2ccc3c(N)ncnn23)[C@H](O)[C@@H]1O)Oc1ccccc1
> 10 µM

====

- assay text: Cell toxicity, CellTiter-Glo, in HBV assay
- reported conditions: human, PHH cells (HBV assay)
assay metric: CC50

Returns the measured CC50 for the input molecule. Input: CCC(CC)COC(=O)[C@H](C)N[P@](=O)(OC[C@H]1O[C@@](C#N)(c2ccc3c(N)ncnn23)[C@H](O)[C@@H]1O)Oc1ccccc1
> 1000 nM

====

- Test system: hepatitis E virus (GT3-Kernow C1 p6/Luciferase replicon)
- assay text: HEV replicon Gaussia luciferase assay, Huh-7
- Type: cell-based
- reported conditions: Hepatitis E virus; Hepatitis E GT3 Kernow C1 p6/Luc replicon [Huh-7]; read-out: Antiviral activity EC50
assay metric: EC50

Returns the measured EC50 for the input molecule. Input: CCC(CC)COC(=O)[C@H](C)N[P@](=O)(OC[C@H]1O[C@@](C#N)(c2ccc3c(N)ncnn23)[C@H](O)[C@@H]1O)Oc1ccccc1 [RDV, Remdesivir]
> 2070 nM

====

Field: EC50. Provide a value for each of the molecules that follow.
- Test system: MARV Ci67
- assay text: organism not typed
- Assay type: cell-based, Marburg virus
- reported conditions: HeLa, read-out: Activity against MARV EC50
Reply with just the number (in µM).

Returns the measured EC50 for the input molecule. Input: CCCCN(CCCC)CC(O)c1cc(Cl)cc2c1-c1ccc(Cl)cc1/C2=C/c1ccc(Cl)cc1 (stereo not drawn)
16.6

What do you have for O=C1Nc2ccc(Cl)cc2[C@@](C#CC2CC2)(C(F)(F)F)O1 ?
19.8

====

Field: CC50. Provide a value for each of the compounds that follow.
- assay text: in vitro
- reported conditions: human, CC50 when tested alone

Returns the measured CC50 for the input compound. Input: O=C1Nc2ccc(Cl)cc2[C@@](C#CC2CC2)(C(F)(F)F)O1
14 to 28 µM

What do you have for O=C1C(O)=C([C@H]2CC[C@H](c3ccc(Cl)cc3)CC2)C(=O)c2ccccc21 ?
8 to 17 µM

====

- assay text: Multiplex cytotoxicity (calcein AM) in HCV replicon assay
- reported conditions: human, Huh-7-lunet HCV genotype 1b replicon cells
assay metric: CC50

Returns the measured CC50 for the input compound. Input: CCC(CC)COC(=O)[C@H](C)N[P@](=O)(OC[C@H]1O[C@@](C#N)(c2ccc3c(N)ncnn23)[C@H](O)[C@@H]1O)Oc1ccccc1 [RDV, Remdesivir]
> 20 µM

====

Field: RDV CC50 when in combination. Provide a value for each of the compounds that follow.
- Tested on: HeLa cells
- reported conditions: human
Where a name gives a salt, the structure may show the parent alone.

Returns the measured RDV CC50 when in combination for the input compound. Input: Cc1cccc(C)c1OCC(=O)N[C@@H](Cc1ccccc1)[C@@H](O)C[C@H](Cc1ccccc1)NC(=O)[C@H](C(C)C)N1CCCNC1=O [Lopinavir]
> 2.5 µM

What do you have for Nc1ccn([C@@H]2CS[C@H](CO)O2)c(=O)n1 [Lamivudine] ?
> 2.5 µM

What do you have for Cc1ncc([N+](=O)[O-])n1CCO [Metronidazole] ?
> 2.5 µM

What do you have for CC(=O)Nc1ccc(O)cc1 [Acetaminophen] ?
> 2.5 µM

What do you have for CCN(CC)Cc1cc(Nc2ccnc3cc(Cl)ccc23)ccc1O [Amodiaquine, Amodiaquine hydrochloride dihydrate] ?
> 2.5 µM

What do you have for CCCCN(CCCC)CC(O)c1cc(Cl)cc2c1-c1ccc(Cl)cc1/C2=C/c1ccc(Cl)cc1 (centres unmarked) [Lumefantrine] ?
> 2.5 µM

What do you have for CO/N=C(\C(=O)N[C@@H]1C(=O)N2C(C(=O)O)=C(CSc3nc(=O)c(=O)[nH]n3C)CS[C@H]12)c1csc(N)n1 [Ceftriaxone] ?
> 2.5 µM

What do you have for CC(C)OC(=O)OCOP(=O)(CO[C@H](C)Cn1cnc2c(N)ncnc21)OCOC(=O)OC(C)C [Tenofovir disoproxil fumarate] ?
> 2.5 µM

Recorded values, source paper PMC9950143.
